Data provenance: ChEMBL document CHEMBL1944590

Target: C-C chemokine receptor type 2 (Homo sapiens)
Sequence (P41597 whole entry): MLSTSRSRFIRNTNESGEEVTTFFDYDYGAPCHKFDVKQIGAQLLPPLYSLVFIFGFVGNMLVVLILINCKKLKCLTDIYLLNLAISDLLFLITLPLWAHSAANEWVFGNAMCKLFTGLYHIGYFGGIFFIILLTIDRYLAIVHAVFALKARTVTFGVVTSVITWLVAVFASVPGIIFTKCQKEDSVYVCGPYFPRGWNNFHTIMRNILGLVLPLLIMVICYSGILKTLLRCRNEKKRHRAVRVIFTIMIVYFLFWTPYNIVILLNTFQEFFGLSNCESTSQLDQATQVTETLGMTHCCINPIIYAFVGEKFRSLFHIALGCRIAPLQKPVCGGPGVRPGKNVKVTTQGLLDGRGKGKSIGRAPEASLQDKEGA
Assay: Displacement of [125I]MCP-1 from CCR2 in human PMBC
Below: a set of entries, each annotated with reported IC50.
readout: IC50 (nM)

- CC(C)N(C)[C@H]1CC[C@@H](NC(=O)CNC(=O)c2cccc(C(F)(F)F)c2)CC1: 72
- CN(C)[C@@H]1CC[C@H](NC(=O)CNC(=O)c2cccc(C(F)(F)F)c2)C[C@@H]1CS(=O)(=O)c1ccccc1 (racemic): 130
- CC(C)N(C)[C@@H]1CC[C@H](NC(=O)CNC(=O)c2cccc(C(F)(F)F)c2)C[C@@H]1CS(=O)(=O)c1ccccc1: 79
